- Test system: Trypanosoma brucei rhodesiense (Tbr) STIB900 strain
- assay info: in vitro antitrypanosomal assay, bloodstream forms, resazurin
- Format: cell-based
- setup conditions: Trypanosoma brucei, values in brackets, calculated with the molecular masses of the corresponding salts; read-out: IC50 Tbr (converted)
Binarize IC50 at 3000 nM; below is yes, at or above is no.

Solved entries (count: 4):
molecule: CC(C)=CC(=O)N[C@@H]1[C@H](O)[C@@H]2CC[C@@H]3[C@H](CC[C@]4(C)[C@@H]([C@H](C)N(C)C)CC[C@@H]34)[C@@]2(C)C[C@@H]1O [Compound 16, 4β-Hydroxy-hookerianamide N]
answer label: no
//
molecule: C[C@@H]([C@H]1CC[C@H]2[C@@H]3CC=C4C[C@@H](NC(=O)c5cccnc5)CC[C@]4(C)[C@H]3CC[C@]12C)N(C)C [Compound 5, Pactermine A]
answer label: yes
//
molecule: C[C@@H]([C@H]1CC[C@H]2[C@@H]3CC[C@H]4C[C@@H](NC(=O)c5cccnc5)CC[C@]4(C)[C@H]3CC[C@]12C)N(C)C [Compound 4, Epipachysamine B]
answer label: yes
//
molecule: CN[C@@H]1CC[C@]2(C)[C@H]3CC[C@]4(C)[C@@H]([C@H](C)N(C)C)CC[C@H]4[C@@H]3CC[C@@]2(O)[C@@H]1OC(=O)c1ccccc1 [Compound 17, 5α-Hydroxy-3α,4α-diapachysanaximine A]
answer label: no

Now examine the next entry.
Input line: Please indicate whether the reported IC50 of CN[C@@H]1CC[C@@]2(C)[C@@H](CC[C@@H]3[C@@H]2CC[C@]2(C)[C@@H]([C@H](C)N(C)C)CC[C@@H]32)C1 [Compound 8, Pachysamine A] is strictly below 3000 nM.
Output line: yes
